All figures here come from patent US20210388087A1.

Molecular target: T1, Human CD3eg linker (human)
T1 construct: single-chain construct; also called recombinant human CD3
T1 chain: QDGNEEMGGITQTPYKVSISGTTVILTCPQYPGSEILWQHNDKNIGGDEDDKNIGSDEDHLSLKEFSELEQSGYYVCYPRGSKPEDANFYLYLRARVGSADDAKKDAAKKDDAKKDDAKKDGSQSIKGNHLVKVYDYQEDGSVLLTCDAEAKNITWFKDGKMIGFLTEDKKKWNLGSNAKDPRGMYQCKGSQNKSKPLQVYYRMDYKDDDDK
Experiment: SPR, vs unmutated H183/L072
Classify as follows. Reported fold change of affinity greater than or equal to 1 fold: YES. Reported fold change of affinity below: NO.

Q: Say whether dBBDu183H A100fG/dBBDu072L (antibody, name in Kabat numbering, V domains shown) VH: QVQLVESGGGLVQPGRSLRLSCAASGFTFSNAWMHWVRQAPGKGLEWVAQIKDKGNAYAAYYAPSVKGRFTISRDDSKNSIYLQMNSLKTEDTAVYYCHYVHYASASTVLPGFGVDAWGQGTTVTVSS VL: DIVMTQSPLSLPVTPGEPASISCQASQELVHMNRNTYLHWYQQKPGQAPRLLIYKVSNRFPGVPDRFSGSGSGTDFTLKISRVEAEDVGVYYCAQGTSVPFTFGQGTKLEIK shows fold change of affinity of 1 fold or more.
A: YES

Q: Say whether dBBDu183H V63W/dBBDu072L (antibody, name in Kabat numbering, V domains shown) VH: QVQLVESGGGLVQPGRSLRLSCAASGFTFSNAWMHWVRQAPGKGLEWVAQIKDKGNAYAAYYAPSWKGRFTISRDDSKNSIYLQMNSLKTEDTAVYYCHYVHYASASTVLPAFGVDAWGQGTTVTVSS VL: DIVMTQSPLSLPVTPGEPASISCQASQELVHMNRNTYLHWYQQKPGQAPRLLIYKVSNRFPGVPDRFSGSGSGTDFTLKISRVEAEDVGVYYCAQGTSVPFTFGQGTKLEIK shows fold change of affinity of 1 fold or more.
A: NO

Q: Say whether dBBDu183H H96V/dBBDu072L (antibody, name in Kabat numbering, V domains shown) VH: QVQLVESGGGLVQPGRSLRLSCAASGFTFSNAWMHWVRQAPGKGLEWVAQIKDKGNAYAAYYAPSVKGRFTISRDDSKNSIYLQMNSLKTEDTAVYYCHYVVYASASTVLPAFGVDAWGQGTTVTVSS VL: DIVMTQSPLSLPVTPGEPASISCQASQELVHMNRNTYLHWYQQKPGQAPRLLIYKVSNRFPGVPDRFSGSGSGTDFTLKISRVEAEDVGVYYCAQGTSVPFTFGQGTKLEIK shows fold change of affinity of 1 fold or more.
A: NO

Q: Say whether dBBDu183H S100aH/dBBDu072L (antibody, name in Kabat numbering, V domains shown) VH: QVQLVESGGGLVQPGRSLRLSCAASGFTFSNAWMHWVRQAPGKGLEWVAQIKDKGNAYAAYYAPSVKGRFTISRDDSKNSIYLQMNSLKTEDTAVYYCHYVHYASAHTVLPAFGVDAWGQGTTVTVSS VL: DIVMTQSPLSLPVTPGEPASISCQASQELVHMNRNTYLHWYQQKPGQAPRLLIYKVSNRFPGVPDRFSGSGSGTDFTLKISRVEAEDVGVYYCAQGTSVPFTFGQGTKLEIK shows fold change of affinity of 1 fold or more.
A: YES
